Biological target: human C5a receptor (Homo sapiens)
Construct: endogenous in cells; host or cells: U937 cells differentiated with 1 mM dibutyryl cAMP
Sequence (P21730 1-350): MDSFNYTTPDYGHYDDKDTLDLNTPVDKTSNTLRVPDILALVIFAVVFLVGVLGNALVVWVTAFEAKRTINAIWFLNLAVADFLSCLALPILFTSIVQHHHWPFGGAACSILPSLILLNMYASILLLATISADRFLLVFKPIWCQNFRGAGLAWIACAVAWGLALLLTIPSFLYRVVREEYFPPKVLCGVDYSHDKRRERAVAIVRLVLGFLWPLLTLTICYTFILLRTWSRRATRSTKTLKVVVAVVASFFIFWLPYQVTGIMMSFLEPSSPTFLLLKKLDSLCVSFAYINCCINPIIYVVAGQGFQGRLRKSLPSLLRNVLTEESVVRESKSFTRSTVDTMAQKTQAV
Assay: C5a receptor mediated calcium mobilization assay (Example 20)
Assay type: cell-based
Conditions: differentiated U937 cells, read-out: Ca2+ (Ki in the standard assay of C5a receptor mediated calcium mobilization)
We begin with a simple list: items and their reported Ki.

Entry COc1ncccc1CN(Cc1ccccc1F)C(=O)[C@H](C)N1CCc2ccccc2[C@@H]1c1cccc2ccccc12 [Compound 122] , tested on human C5a receptor (Homo sapiens), has a reported Ki of < 1000 nM

Entry Cc1ccccc1[C@@H]1c2ccccc2CCN1[C@@H](C)C(=O)N(Cc1ccccc1F)C1Cc2ccccc2C1 (relative stereo) [Compound 19] , tested on human C5a receptor (Homo sapiens), has a reported Ki of < 1000 nM

New cases:
Entry Cc1ccccc1[C@@H]1c2ccccc2[C@@H](C)CN1CC(=O)N(Cc1ccccc1F)C1Cc2ccccc2C1 (stereo in doubt) [Compound 46] , tested on human C5a receptor (Homo sapiens), has a reported Ki of < 1000 nM

Recorded values, source patent US6777422B2.
